Molecular target: d-enCas12a (Acidaminococcus sp., UniProt U2UMQ6 1-1307, E174R;S542R;K548R;D908A;E993A;D1235A)
Test: Spec-seq (native PAGE EMSA with sequencing of bound and unbound); 25 mM Tris-HCl pH 7.4, 150 mM KCl, 5 mM MgCl2, 10% glycerol, 1 mM DTT, 40 ng/uL salmon sperm DNA; 400 nM Cas12a, 480 nM crRNA, 50 nM library, 37 C 1 h; native PAGE at room temperature; high values mean tight binding;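 note: relative affinity from the bound to unbound sequence frequency ratio in Spec-seq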
Settings: protein: recombinant
experimentalEndpoint: binding signal (lnKA)
Kindly answer with a numeric value in lnKA, unit omitted.

Data request, read-out binding signal, for ACGC (dsDNA) DNA 1: GCTATCTAGTGCTCAGTACGCACTGACGCAGGAAACTTCTGGCAGGACCAGGTCATGAGATCGGAAGAGCACACGTCTGAACTCCAGTCA DNA 2: TGACTGGAGTTCAGACGTGTGCTCTTCCGATCTCATGACCTGGTCCTGCCAGAAGTTTCCTGCGTCAGTGCGTACTGAGCACTAGATAGC RNA: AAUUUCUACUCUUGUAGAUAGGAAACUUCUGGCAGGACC
-5.66

Data request, read-out binding signal, for GAGG (dsDNA) DNA 1: GCTATCTAGTGCTCAGTACGCACTGGAGGAGGAAACTTCTGGCAGGACCAGGTCATGAGATCGGAAGAGCACACGTCTGAACTCCAGTCA DNA 2: TGACTGGAGTTCAGACGTGTGCTCTTCCGATCTCATGACCTGGTCCTGCCAGAAGTTTCCTCCTCCAGTGCGTACTGAGCACTAGATAGC RNA: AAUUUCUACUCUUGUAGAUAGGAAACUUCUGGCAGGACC
-5.9
